Entry source: patent US4668685A

# measurementNotes: Oral nalbuphine bioavailability, monkey
# conditionParameters: plasma, po, 4 mg/kg, Oral nalbuphine bioavailability (F), 4 mg nalbuphine/kg, % dose, two values
reportedMetric: bioavailability (%)

Oc1ccc2c3c1O[C@H]1[C@@H](O)CC[C@@]4(O)[C@@H](C2)N(CC2CCC2)CC[C@]314 [nalbuphine] : 0.9

###

# measurementNotes: Oral nalbuphine bioavailability, human
# conditionParameters: plasma, po, 45 mg
reportedMetric: bioavailability (%)

Oc1ccc2c3c1O[C@H]1[C@@H](O)CC[C@@]4(O)[C@@H](C2)N(CC2CCC2)CC[C@]314 [nalbuphine] : 14

###

# measurementNotes: Oral 3-hydroxymorphinan bioavailability, dog (drug and prodrugs)
# conditionParameters: plasma, po, 4 mg/kg
reportedMetric: bioavailability (%)

Oc1ccc2c3c1O[C@H]1[C@@H](O)CC[C@@]4(O)[C@@H](C2)N(CC2CCC2)CC[C@]314 : 5.4

###

# measurementNotes: Plasma hydrolysis of nalbuphine prodrug, monkey plasma
Counter-ions that a name gives are not always drawn.
reportedMetric: half-life at 0.28 µM (h)

Nc1ccccc1C(=O)Oc1ccc2c3c1O[C@H]1[C@@H](O)CC[C@@]4(O)[C@@H](C2)N(CC2CCC2)CC[C@]314 [Example 2, Nalbuphine-3-anthranilate hydrochloride] : 3.3
CC(=O)Oc1ccccc1C(=O)Oc1ccc2c3c1O[C@H]1[C@@H](O)CC[C@@]4(O)[C@@H](C2)N(CC2CCC2)CC[C@]314 [Example 1, Nalbuphine-3-(acetylsalicylate)] : 0.6

###

# measurementNotes: Plasma hydrolysis of nalbuphine prodrug, dog plasma
Where a name gives a salt, the structure may show the parent alone.
compounds and their reported half-life at 0.28 µM
reportedMetric: half-life at 0.28 µM (h)

CC(=O)Oc1ccccc1C(=O)Oc1ccc2c3c1O[C@H]1[C@@H](O)CC[C@@]4(O)[C@@H](C2)N(CC2CCC2)CC[C@]314 [Example 1, Nalbuphine-3-(acetylsalicylate)] : 2.8
Nc1ccccc1C(=O)Oc1ccc2c3c1O[C@H]1[C@@H](O)CC[C@@]4(O)[C@@H](C2)N(CC2CCC2)CC[C@]314 [Example 2, Nalbuphine-3-anthranilate hydrochloride] : 14.6

###

Items are presented alongside their recorded half-life at 0.28 µM.
# measurementNotes: Plasma hydrolysis of nalbuphine prodrug, rat plasma
Where a name gives a salt, the structure may show the parent alone.
reportedMetric: half-life at 0.28 µM (min)

Nc1ccccc1C(=O)Oc1ccc2c3c1O[C@H]1[C@@H](O)CC[C@@]4(O)[C@@H](C2)N(CC2CCC2)CC[C@]314 [Example 2, Nalbuphine-3-anthranilate hydrochloride] : 90
CC(=O)Oc1ccccc1C(=O)Oc1ccc2c3c1O[C@H]1[C@@H](O)CC[C@@]4(O)[C@@H](C2)N(CC2CCC2)CC[C@]314 [Example 1, Nalbuphine-3-(acetylsalicylate)] : 12

###

# measurementNotes: Oral 3-hydroxymorphinan bioavailability (nalbuphine), rat
# conditionParameters: plasma, 20 mg/kg
reportedMetric: bioavailability

Oc1ccc2c3c1O[C@H]1[C@@H](O)CC[C@@]4(O)[C@@H](C2)N(CC2CCC2)CC[C@]314 : 2.7%

###

# measurementNotes: Plasma hydrolysis of nalbuphine prodrug, human plasma
Where a name gives a salt, the structure may show the parent alone.
reportedMetric: half-life at 0.28 µM (h)

Nc1ccccc1C(=O)Oc1ccc2c3c1O[C@H]1[C@@H](O)CC[C@@]4(O)[C@@H](C2)N(CC2CCC2)CC[C@]314 [Example 2, Nalbuphine-3-anthranilate hydrochloride] : 45
CC(=O)Oc1ccccc1C(=O)Oc1ccc2c3c1O[C@H]1[C@@H](O)CC[C@@]4(O)[C@@H](C2)N(CC2CCC2)CC[C@]314 [Example 1, Nalbuphine-3-(acetylsalicylate)] : 6.2
